Sourced from patent US5668265A

# Tested on: human α thrombin
# assay-name: Competitive binding assay on BIAcore (SPR) against immobilized consensus aptamer
# test-settings: 80 nM human α thrombin, 25° C., pH 7.4, competition with immobilized consensus aptamer; read-out: Apparent Kd
endpoint-label: pKd
As a rule, pKd stands for the negative log10 of the concentration, concentration in M.

substance: ^5' GGTTGGTT^3' -L1 -^3' TTGGTTGG^5' (DNA, backbone not given here; two strands joined 3'-3' by hexaethylene glycol phosphodiester linker, further chemistry not fully specified) [Compound 6, 3'-3' bi-directional oligonucleotide linked through hexaethylene glycol phosphodiester]
pKd: 8.00

substance: ^5' GGTTGGTGTGGTTGG^3' [Compound 10, reference compound]
pKd: 8.22

substance: ^5' GGTTGGTT^3' -p-^3' TTGGTTGG^5' [Compound 2]
pKd: 6.51

# input Report pKd for ^5' GGTTGGTT^3' (DNA, backbone not given here) [Compound 12, single oligonucleotide segment, control, reference compound] please.
# output 5.82

# input What measured pKd goes with ^3' GGTTGGTT^5' -p-^5' TTGGTTGG^3' [Compound 4] ?
# output 7.60

# input What value of pKd has been reported for the following substance? ^5' GGTTGGTG^3' -p-^3' TGGTTGG^5' [Compound 1]
# output 6.65

# input Which value of pKd has been reported for ^5' GGTTGGT^3' -L1 -^3' TGGTTGG^5' (DNA, backbone not given here; two strands joined 3'-3' through linker L1, further chemistry not fully specified) [Compound 5, 3'-3' bi-directional oligonucleotide linked through hexaethylene glycol phosphodiester] in the records?
# output 8.05

# input Any idea what its pKd is? The substance is ^5' GGTTGGTTG^3' -p-^3' TTGGTTGG^5' [Compound 3]
# output 7.96
